Target: Adrenergic receptor alpha-1 (Rattus norvegicus, UniProt P15823+P23944+P43140)
Assay: Binding affinity towards rat Alpha-1 adrenergic receptor was evaluated using [3H]- prazosin as radioligand
Assay type: protein assay
Property Measured: IC50 (nM)
Answers are plain numbers, in nM.

Provide the reported IC50 of each entry below, same order.
1. COc1cccc2c1CCC(CCN1CCN(c3ccccc3)CC1)=C2
2. COc1ccc2c(c1)C=C(CCN1CCN(c3ccccc3)CC1)CC2
3. COc1ccc2c(c1)CCC(CCN1CCN(c3ccccc3)CC1)=C2
4. COc1ccc2c(c1)C(CCCN1CCN(c3ccccc3)CC1)=CCC2
5. COc1cccc2c1C(CCCN1CCN(c3ccccc3)CC1)CCC2 (configuration not stated)
6. COc1cccc2c1CCCC2CCCCN1CCN(c2ccccc2)CC1 (configuration not stated)
7. COc1ccc2c(c1)CCC(CCN1CCN(c3ccccc3)CC1)C2 (configuration not stated)
8. COc1ccc2c(c1)CC(CCN1CCN(c3ccccc3)CC1)CC2 (configuration not stated)

1. 194
2. 58
3. 88
4. 173
5. 130
6. 130
7. 79
8. 80

Items follow; give IC50 for each.
1. COc1cccc2c1CCC(CCN1CCN(c3ccccc3)CC1)C2 (configuration not stated)
2. COc1cccc2c1CCCC2CCN1CCN(c2ccccc2)CC1 (configuration not stated)
3. COc1cccc2c1CCC/C2=C\CCN1CCN(c2ccccc2)CC1
4. COc1ccc2c(c1)CCCC2CCCN1CCN(c2ccccc2)CC1 (configuration not stated)

1: 100; 2: 84; 3: 120; 4: 45

* * *

Target: D(2) dopamine receptor (Rattus norvegicus, UniProt P61169)
Sequence (P61169 whole entry): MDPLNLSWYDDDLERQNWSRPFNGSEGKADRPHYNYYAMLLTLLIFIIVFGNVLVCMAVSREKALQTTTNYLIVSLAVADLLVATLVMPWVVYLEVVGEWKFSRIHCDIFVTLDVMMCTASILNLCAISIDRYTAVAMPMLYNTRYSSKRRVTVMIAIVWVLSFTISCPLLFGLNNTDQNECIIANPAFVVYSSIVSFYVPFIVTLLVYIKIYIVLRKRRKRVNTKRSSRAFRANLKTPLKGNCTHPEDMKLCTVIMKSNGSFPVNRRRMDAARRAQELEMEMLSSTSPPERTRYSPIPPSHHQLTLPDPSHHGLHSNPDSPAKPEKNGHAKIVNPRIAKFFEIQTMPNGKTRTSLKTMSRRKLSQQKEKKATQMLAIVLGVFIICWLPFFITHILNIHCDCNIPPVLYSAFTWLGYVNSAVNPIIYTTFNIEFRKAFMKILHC
Experiment: Binding affinity towards rat Dopamine receptor D2 was evaluated using [3H]- spiroperidol as radioligand
Property Measured: pIC50
One number for each entry, as −log10 of the molar value.

Some compounds with recorded pIC50:
COc1ccc2c(c1)CC(CCN1CCN(c3ccccc3)CC1)CC2 (stereo unspecified)
7.00
COc1cccc2c1CCC(CCN1CCN(c3ccccc3)CC1)=C2
6.56
COc1ccc2c(c1)C(CCCN1CCN(c3ccccc3)CC1)=CCC2
6.80
COc1cccc2c1C(CCCN1CCN(c3ccccc3)CC1)CCC2 (stereo unspecified)
7.21

For every item below, please supply its pIC50.
1. COc1ccc2c(c1)C=C(CCN1CCN(c3ccccc3)CC1)CC2
2. COc1cccc2c1CCC/C2=C\CCN1CCN(c2ccccc2)CC1

1. 6.87
2. 7.00

* * *

Kindly state pIC50 for each of the entries shown.
Target: D(2) dopamine receptor (Rattus norvegicus)
Assay: Binding affinity towards rat Dopamine receptor D2 was evaluated using [3H]- spiroperidol as radioligand
Answers are plain numbers, as −log10 of the molar value.

COc1ccc2c(c1)CCCC2CCCN1CCN(c2ccccc2)CC1 (stereo unspecified)
7.04
COc1ccc2c(c1)CCC(CCN1CCN(c3ccccc3)CC1)C2 (stereo unspecified)
6.92
COc1cccc2c1CCC(CCN1CCN(c3ccccc3)CC1)C2 (stereo unspecified)
6.89
COc1cccc2c1CCCC2CCN1CCN(c2ccccc2)CC1 (stereo unspecified)
6.68
COc1cccc2c1CCCC2CCCCN1CCN(c2ccccc2)CC1 (stereo unspecified)
6.96

Read the next record carefully.
For this compound ( COc1ccc2c(c1)CCC(CCN1CCN(c3ccccc3)CC1)=C2 ), measured pIC50 is 6.77

* * *

Assay: Selectivity ratio of IC50 values of 5-hydroxytryptamine 1A receptor vs 5-hydroxytryptamine 2 receptor
Property Measured: Selectivity ratio

I'm hoping you can list Selectivity ratio for every compound here, please.
1. COc1ccc2c(c1)CCC(CCN1CCN(c3ccccc3)CC1)C2 (stereo unspecified)
2. COc1ccc2c(c1)CCCC2CCCN1CCN(c2ccccc2)CC1 (stereo unspecified)
3. COc1cccc2c1CCCC2CCCN1CCN(c2ccccc2)CC1 (stereo unspecified)
4. COc1cccc2c1CCC(CCN1CCN(c3ccccc3)CC1)=C2

23
30
460
1

Origin of values: ChEMBL document CHEMBL1129592
